Taken from ChEMBL document CHEMBL1136022.

- TARGET_ENTITY: Protein farnesyltransferase (Bos taurus) (UniProt P29702+P49355)
- PROTOCOL: In vitro inhibition of bovine Farnesyltransferase at a 1 ug/mL.
- Assay type: protein-complex assay
Where a SMILES comes first, the peptide text is derived from it.
VALUE_TYPE: inhibition (%)

>>> value_observed("COC(=O)[C@H](COC(=O)c1ccc(Cl)cc1)NC(=O)[C@@H](NC(=O)[C@@H](N)CS)C(C)C")
75

I: COC(=O)[C@H](Cc1ccc(OC(C)=O)cc1)NC(=O)[C@@H](NC(=O)[C@@H](N)CS)C(C)C (H-Cys-Val-Tyr(Ac)-OMe)
II: COC(=O)[C@H](Cc1cccc(OC(=O)c2ccccc2)c1)NC(=O)[C@@H](NC(=O)[C@@H](N)CS)C(C)C
Exercise: Pick one: I or II . Which has the bigger inhibition number? Write down the label of the entry you select.
Solution: II

P: COC(=O)[C@H](Cc1cccc(OC(C)=O)c1)NC(=O)[C@@H](NC(=O)[C@@H](N)CS)C(C)C
Q: COC(=O)[C@H](COC(=O)c1ccc(C)cc1)NC(=O)[C@@H](NC(=O)[C@@H](N)CS)C(C)C
Exercise: Among P and Q , whose measured inhibition is the smaller figure? // respond with label for picked entry
Solution: P

* * *

- TARGET_ENTITY: Protein farnesyltransferase (Bos taurus, UniProt P29702+P49355)
- PROTOCOL: In vitro inhibition of bovine Farnesyltransferase.
- Type: protein-complex assay
pIC50: −log10 of the molar value. Where a SMILES comes first, the peptide text is derived from it. The star is where a group is joined. Isobutyryl = CC(C)C(=O)*; Hexanoyl = CCCCCC(=O)*
VALUE_TYPE: pIC50

Examples from the recorded data:
>>> value_observed("COC(=O)[C@H](Cc1cccc(OC(=O)C=C(C)C)c1)NC(=O)[C@@H](NC(=O)[C@@H](N)CS)C(C)C")
5.08
>>> value_observed("COC(=O)[C@H](Cc1ccc(OC(=O)CC(C)CCCC(C)C)cc1)NC(=O)[C@@H](NC(=O)[C@@H](N)CS)C(C)C (stereo not given in full)")
5.09
>>> value_observed("COC(=O)[C@H](Cc1cccc(OC(=O)C(C)C)c1)NC(=O)[C@@H](NC(=O)[C@@H](N)CS)C(C)C")
5.00

I: COC(=O)[C@H](Cc1ccc(OC(=O)C(C)C)cc1)NC(=O)[C@@H](NC(=O)[C@@H](N)CS)C(C)C (H-Cys-Val-Tyr(Isobutyryl)-OMe)
II: CCCCCC(=O)Oc1ccc(C[C@H](NC(=O)[C@@H](NC(=O)[C@@H](N)CS)C(C)C)C(=O)OC)cc1 (H-Cys-Val-Tyr(Hexanoyl)-OMe)
Exercise: API: POST /compare with I and II ; response names the item with higher pIC50. When you have decided, please share the label of that item.
Solution: II
